- measuredTarget: recombinant rat α5β2γ2 GABAA receptors (Rattus norvegicus, UniProt P19969)
- Sequence (P19969 32-464 limits assumed): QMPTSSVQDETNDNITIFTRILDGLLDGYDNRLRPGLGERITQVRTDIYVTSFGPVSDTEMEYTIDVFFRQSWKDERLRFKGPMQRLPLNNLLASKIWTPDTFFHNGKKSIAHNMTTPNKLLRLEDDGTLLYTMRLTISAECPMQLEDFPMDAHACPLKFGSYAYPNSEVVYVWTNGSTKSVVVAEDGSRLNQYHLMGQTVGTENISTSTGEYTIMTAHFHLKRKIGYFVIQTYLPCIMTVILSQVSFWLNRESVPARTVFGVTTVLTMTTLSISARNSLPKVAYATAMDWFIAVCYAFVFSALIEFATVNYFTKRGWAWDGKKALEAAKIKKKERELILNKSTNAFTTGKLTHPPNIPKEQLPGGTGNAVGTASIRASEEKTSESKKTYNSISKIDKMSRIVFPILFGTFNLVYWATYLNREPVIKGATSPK
- assayInfo: Whole-cell patch-clamp, modulation of GABA (EC20)-induced currents in transfected HEK 293 cells, α5β2γ2
- measurementContext: applied with approximate GABA EC20, read-out: EC50 (ELB139)
recordedMetric: EC50 (µM)
The reply should contain only the number, in µM.

// sample O=C1N=C(N2CCCCC2)CN1c1ccc(Cl)cc1 [ELB139] , its EC50 was 3.6

###

- measuredTarget: recombinant rat α4β2γ2 GABAA receptors (Rattus norvegicus, UniProt P28471)
- Sequence (P28471 36-552): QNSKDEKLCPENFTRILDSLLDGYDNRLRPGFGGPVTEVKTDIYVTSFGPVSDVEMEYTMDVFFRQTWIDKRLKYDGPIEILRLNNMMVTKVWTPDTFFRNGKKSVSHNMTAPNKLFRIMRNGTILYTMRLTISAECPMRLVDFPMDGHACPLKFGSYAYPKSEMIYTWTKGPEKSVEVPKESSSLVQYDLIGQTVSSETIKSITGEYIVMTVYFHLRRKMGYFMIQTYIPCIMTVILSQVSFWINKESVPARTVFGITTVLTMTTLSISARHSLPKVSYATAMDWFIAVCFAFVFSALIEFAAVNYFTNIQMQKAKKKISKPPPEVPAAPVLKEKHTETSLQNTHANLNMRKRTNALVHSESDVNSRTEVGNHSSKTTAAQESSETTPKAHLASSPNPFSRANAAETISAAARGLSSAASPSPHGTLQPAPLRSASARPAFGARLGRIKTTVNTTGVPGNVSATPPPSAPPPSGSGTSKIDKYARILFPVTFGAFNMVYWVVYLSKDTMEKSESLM
- assayInfo: Whole-cell patch-clamp, modulation of GABA (EC20)-induced currents in transfected HEK 293 cells, α4β2γ2
- measurementContext: α4β2γ2; applied with approximate GABA EC20; read-out: EC50 (ELB139)
recordedMetric: EC50

// sample O=C1N=C(N2CCCCC2)CN1c1ccc(Cl)cc1 [ELB139] , its EC50 was > 30 µM
